The values you see were collected from patent US20250270301A1.

biological target: T1, full length recombinant human 2N4R tau (human, UniProt P10636 1-758); experiment: SPR MCK, IgG on Protein A, tau in flow
T1 construct: bought from rPeptide; pHrodo Red maleimide-labelled where it stands in uptake assays; also called tau1-441; full length tau
T1 sequence (P10636 other isoform, or with tags, fused parts or gaps limits assumed): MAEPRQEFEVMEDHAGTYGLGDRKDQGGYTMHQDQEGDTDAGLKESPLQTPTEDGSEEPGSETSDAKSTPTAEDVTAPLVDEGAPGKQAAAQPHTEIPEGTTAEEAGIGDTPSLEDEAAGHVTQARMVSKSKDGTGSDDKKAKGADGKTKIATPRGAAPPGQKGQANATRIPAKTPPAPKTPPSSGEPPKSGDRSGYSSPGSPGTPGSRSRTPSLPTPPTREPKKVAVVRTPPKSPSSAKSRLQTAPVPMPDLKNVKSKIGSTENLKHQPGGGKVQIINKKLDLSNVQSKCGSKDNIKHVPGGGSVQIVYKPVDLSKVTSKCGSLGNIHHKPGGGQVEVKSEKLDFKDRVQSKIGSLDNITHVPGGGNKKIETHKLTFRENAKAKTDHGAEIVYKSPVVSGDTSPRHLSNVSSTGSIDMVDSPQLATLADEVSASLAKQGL
experimental.endpoint: kon (M⁻¹ s⁻¹)
Note: unit M⁻¹ s⁻¹ is implicit; provide only the numeric part.

Below, each entry is followed by its recorded kon result.
[in] Could you share which kon value was measured for #44 VH4VK3 humanised hIgG1 (antibody, V domains shown, also called VH4Vκ3; Clone VH4VK3 (D)) VH: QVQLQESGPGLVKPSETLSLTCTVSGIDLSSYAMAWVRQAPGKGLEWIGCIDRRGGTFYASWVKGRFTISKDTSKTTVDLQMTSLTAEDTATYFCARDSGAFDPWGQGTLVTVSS VL: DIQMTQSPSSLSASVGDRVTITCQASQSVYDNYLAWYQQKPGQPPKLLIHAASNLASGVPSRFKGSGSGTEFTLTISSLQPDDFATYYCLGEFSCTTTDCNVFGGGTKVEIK ?
[out] 7.83e+06

[in] So what's the measured kon for this one? #44 VH3VK4 humanised hIgG1 (antibody, V domains shown, also called VH3Vκ4; Clone VH3VK4 (B)) VH: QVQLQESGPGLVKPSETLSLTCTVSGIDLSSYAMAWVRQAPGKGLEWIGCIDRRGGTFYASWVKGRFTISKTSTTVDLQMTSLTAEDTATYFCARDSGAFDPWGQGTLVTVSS VL: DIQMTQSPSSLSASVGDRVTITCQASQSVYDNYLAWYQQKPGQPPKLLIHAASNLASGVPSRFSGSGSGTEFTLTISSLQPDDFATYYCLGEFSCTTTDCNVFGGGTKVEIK
[out] 9.4e+06

Kindly consider the entry below.
[in] Given the entry #44 VH3VK3 humanised hIgG1 (antibody, V domains shown, also called VH3Vκ3; Clone VH3VK3 (A)) VH: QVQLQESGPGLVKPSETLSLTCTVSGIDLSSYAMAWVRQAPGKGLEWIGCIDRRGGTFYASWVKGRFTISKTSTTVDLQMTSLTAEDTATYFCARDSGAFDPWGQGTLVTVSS VL: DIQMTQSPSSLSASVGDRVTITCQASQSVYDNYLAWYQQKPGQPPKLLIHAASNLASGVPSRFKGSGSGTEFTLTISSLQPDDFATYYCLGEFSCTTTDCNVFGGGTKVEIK , report its measured kon.
[out] 1.63e+07
